assay: Half life in dog at 0.5 mg/kg, iv and 2 mg/kg, po; format: ADME, organism-based, Canis lupus familiaris; conditions: in vivo
reported.metric: half-life (h)

> print(dat)
                                   molecule  numeric.readout
1  O=C(O)CCNC(=O)c1ccc(Cn2nc(-c3cc(Cl)cc(Cl)c3)cc2-c2ccc(OC(F)(F)F)cc2)cc1              3.6

----------
assay: Blood clearance in po dosed mouse; assay type: ADME, organism-based
reported.metric: CL/F (mL/min/kg)

> print(dat)
                                   molecule          u  numeric.readout
1  O=C(Nc1nn[nH]n1)c1ccc(Cn2nc(-c3ccc(OC(F)(F)F)cc3)cc2C2CCCCC2)cc1  mL/min/kg              8.2

----------
// reported log10(IC50) for each item listed
biological target: Glucagon receptor (Homo sapiens, UniProt P47871); assay: Displacement of [125I]glucagon from human GCGR expressed in CHO cells; assay type: cell-based
Sequence (P47871 whole entry): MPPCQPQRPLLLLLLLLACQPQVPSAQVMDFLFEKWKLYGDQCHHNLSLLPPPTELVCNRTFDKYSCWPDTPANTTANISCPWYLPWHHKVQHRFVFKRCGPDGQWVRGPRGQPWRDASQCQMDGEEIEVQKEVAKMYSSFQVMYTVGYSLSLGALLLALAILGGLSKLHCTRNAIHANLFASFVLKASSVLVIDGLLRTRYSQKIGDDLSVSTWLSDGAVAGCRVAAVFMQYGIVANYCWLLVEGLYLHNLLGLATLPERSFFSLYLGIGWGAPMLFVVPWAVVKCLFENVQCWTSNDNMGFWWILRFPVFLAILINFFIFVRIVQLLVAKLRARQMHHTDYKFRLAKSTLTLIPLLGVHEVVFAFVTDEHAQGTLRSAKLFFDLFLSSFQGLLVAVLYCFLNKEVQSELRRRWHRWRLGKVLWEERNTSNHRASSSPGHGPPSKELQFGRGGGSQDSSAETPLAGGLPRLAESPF
reported.metric: log10(IC50) (log10 of the value in nM)

> print(dat)
                                   compound                           target.of.assay  reported.metric  numeric.readout
1  O=C(O)CCNC(=O)c1ccc(Cc2cc(-c3ccc(OC(F)(F)F)cc3)nn2C2CCCCC2)cc1  Glucagon receptor (Homo sapiens, UniProt P47871)      log10(IC50)             3.46
2  O=C(Nc1nn[nH]n1)c1ccc(Cc2cc(-c3ccc(OC(F)(F)F)cc3)nn2C2CCCCC2)cc1  Glucagon receptor (Homo sapiens, UniProt P47871)      log10(IC50)             3.62
3  CC(c1ccc(Cl)cc1)c1cc(-c2ccc(OC(F)(F)F)cc2)n(Cc2ccc(C(=O)Nc3nn[nH]n3)cc2)n1 (centres undefined)  Glucagon receptor (Homo sapiens, UniProt P47871)      log10(IC50)             2.63
4  O=C(NCc1nnn[nH]1)c1ccc(Cn2nc(-c3cc(Cl)cc(Cl)c3)cc2-c2ccc(OC(F)(F)F)cc2)cc1  Glucagon receptor (Homo sapiens, UniProt P47871)      log10(IC50)             2.08
5  O=C(Nc1nn[nH]n1)c1cccc(Cn2nc(-c3ccc(OC(F)(F)F)cc3)cc2-c2ccc(OC(F)(F)F)cc2)c1  Glucagon receptor (Homo sapiens, UniProt P47871)      log10(IC50)             3.04
6  CC(c1ccc(Cl)cc1)c1cc(-c2ccc(OC(F)(F)F)cc2)n(Cc2ccc(C(=O)NCCC(=O)O)cc2)n1 (centres undefined)  Glucagon receptor (Homo sapiens, UniProt P47871)      log10(IC50)             3.38
7  O=C(O)CCNC(=O)c1ccc(Cn2nc(-c3ccc(OC(F)(F)F)cc3)cc2-c2cc(Cl)cc(Cl)c2)cc1  Glucagon receptor (Homo sapiens, UniProt P47871)      log10(IC50)             1.98
8  O=C(Nc1nn[nH]n1)c1ccc(Cn2nc(-c3ccc(OC(F)(F)F)cc3)cc2-c2ccc(OC(F)(F)F)cc2)cc1  Glucagon receptor (Homo sapiens, UniProt P47871)      log10(IC50)             1.63
9  O=C(O)CCNC(=O)c1ccc(Cn2nc(-c3ccc(OC(F)(F)F)cc3)cc2C2CCCCC2)cc1  Glucagon receptor (Homo sapiens, UniProt P47871)      log10(IC50)             3.58
